Experiment: Cytotoxicity against mouse Hepa-1c1c7 cells assessed as cell survival at 25 uM after 48 hrs by MTT assay
Format: cell-based
Conditions: read-out: Activity
measurement-type: viability at 48 h, 25 µM (%)
One number for each entry, in %.

Example results:
>  <compound-string>
COc1cc(OC)c2c(c1)O/C(=C\c1ccc(C)cc1)C2=O

>  <result-value>
93

$$$$
>  <compound-string>
Cc1ccc(/C=C2\Oc3cc(O)ccc3C2=O)cc1

>  <result-value>
100

$$$$
>  <compound-string>
O=C1/C(=C/c2ccc(Cl)cc2)Oc2cc(O)cc(O)c21

>  <result-value>
96

$$$$

Each compound below has a recorded value; state its viability at 48 h, 25 µM.
1. COc1cc(OC)c2c(c1)O/C(=C\c1ccc(N(C)C)cc1)C2=O
2. COc1cc(OC)c2c(c1)O/C(=C\c1cccc(O)c1)C2=O
3. O=C1Oc2ccc(O)cc2/C1=C/c1ccccc1F

98
100
114

Each compound below has a recorded value; state its viability at 48 h, 25 µM.
1. COc1cc(OC)c2c(c1)O/C(=C\c1cnc3ccccc3c1)C2=O
2. O=C1/C(=C/c2ccccc2Cl)Oc2cc(O)ccc21

1. 97
2. 117

Each compound below has a recorded value; state its viability at 48 h, 25 µM.
1. O=C1Oc2ccc(O)cc2/C1=C/c1ccccc1
2. COc1cccc(/C=C2\Oc3cc(OC)cc(OC)c3C2=O)c1
3. O=C1/C(=C/c2cccc(O)c2)Oc2cc(O)cc(O)c21
4. COc1ccccc1/C=C1\Oc2ccc(O)cc2C1=O

94
103
106
95

Each compound below has a recorded value; state its viability at 48 h, 25 µM.
1. COc1cc(OC)c2c(c1)OC(=O)/C2=C\c1ccccc1OC
2. O=C1/C(=C/c2ccccc2Cl)Oc2ccccc21

[107, 98]

Each compound below has a recorded value; state its viability at 48 h, 25 µM.
1. COc1ccc(/C=C2\Oc3cc(O)cc(O)c3C2=O)cc1
2. N#Cc1ccc(/C=C2\Oc3cc(O)cc(O)c3C2=O)cc1
3. COc1ccccc1/C=C1\C(=O)Oc2ccc(O)cc21
4. O=C1/C(=C/c2ccccc2)Oc2cc(O)cc(O)c21
5. O=C1/C(=C/c2ccccc2O)Oc2cc(O)ccc21
6. O=C1/C(=C/c2cccc(O)c2)Oc2ccc(O)cc21

1: 114; 2: 102; 3: 110; 4: 100; 5: 102; 6: 89

Each compound below has a recorded value; state its viability at 48 h, 25 µM.
1. COc1cccc(/C=C2\Oc3ccc(O)cc3C2=O)c1
2. O=C1/C(=C/c2cccc(Cl)c2)Oc2cc(O)ccc21
3. COc1cc(OC)c2c(c1)OC(=O)/C2=C\c1ccccc1O
4. COc1ccccc1/C=C1\Oc2cc(O)ccc2C1=O

110
98
89
96

Would you mind telling me what viability at 48 h, 25 µM value was observed for COc1cccc(/C=C2\Oc3cc(O)ccc3C2=O)c1 ? 84

---

Biological target: CYP1A1 (Mus musculus, UniProt P30561)
Sequence (P30561 whole entry): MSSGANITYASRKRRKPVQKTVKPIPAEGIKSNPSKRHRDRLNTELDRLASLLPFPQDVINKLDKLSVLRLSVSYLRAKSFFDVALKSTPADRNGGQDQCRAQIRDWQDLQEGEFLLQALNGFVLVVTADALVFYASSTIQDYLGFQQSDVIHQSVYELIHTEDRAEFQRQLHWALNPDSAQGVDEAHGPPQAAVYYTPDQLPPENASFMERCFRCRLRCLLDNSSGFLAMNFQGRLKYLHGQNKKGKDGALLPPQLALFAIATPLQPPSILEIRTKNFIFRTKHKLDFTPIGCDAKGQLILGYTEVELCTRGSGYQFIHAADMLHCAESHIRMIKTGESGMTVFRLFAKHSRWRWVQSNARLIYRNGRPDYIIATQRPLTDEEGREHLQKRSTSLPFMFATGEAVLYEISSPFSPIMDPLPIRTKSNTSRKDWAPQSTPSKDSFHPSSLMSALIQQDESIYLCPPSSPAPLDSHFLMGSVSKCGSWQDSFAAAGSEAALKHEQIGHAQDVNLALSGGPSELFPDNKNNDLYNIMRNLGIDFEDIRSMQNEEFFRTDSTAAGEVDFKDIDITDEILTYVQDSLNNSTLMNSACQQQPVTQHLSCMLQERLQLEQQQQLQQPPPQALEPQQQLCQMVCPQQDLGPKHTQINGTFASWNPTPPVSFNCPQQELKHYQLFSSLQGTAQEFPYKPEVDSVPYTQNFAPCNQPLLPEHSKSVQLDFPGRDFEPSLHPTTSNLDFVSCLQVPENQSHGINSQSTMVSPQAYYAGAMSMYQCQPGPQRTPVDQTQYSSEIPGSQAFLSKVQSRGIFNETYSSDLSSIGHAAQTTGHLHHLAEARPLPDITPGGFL
Assay: Induction of Ah receptor in mouse Hepa-1c1c7 cells assessed as induction of CYP1A1 activity at 10 uM after 48 hrs by EROD assay relative to control
Format: cell-based
Conditions: probe ethoxyresorufin (EROD), read-out: FC
Tag: TRUE if measured fold induction at 48 h, 10 µM is not below 1, FALSE if it is.

Worked cases, answers included:
>  <compound-string>
COc1cccc(/C=C2\Oc3cc(O)cc(O)c3C2=O)c1

>  <answer-label>
TRUE

$$$$
>  <compound-string>
O=C1Oc2ccc(O)cc2/C1=C/c1ccccc1O

>  <answer-label>
TRUE

$$$$
>  <compound-string>
O=C1/C(=C/c2ccccc2O)Oc2cc(O)cc(O)c21

>  <answer-label>
TRUE

$$$$
>  <compound-string>
O=C1/C(=C/c2ccccc2O)Oc2ccc(O)cc21

>  <answer-label>
TRUE

$$$$
>  <compound-string>
O=C1/C(=C/c2ccccc2Cl)Oc2cc(O)cc(O)c21

>  <answer-label>
TRUE

$$$$

Now look at this one.
Does COc1cc(OC)c2c(c1)O/C(=C\c1ccccc1O)C2=O have a reported fold induction at 48 h, 10 µM of at least 1? TRUE

Reference source: ChEMBL document CHEMBL1177857
